B1: CPEB3 Ribozyme (parent)
chain: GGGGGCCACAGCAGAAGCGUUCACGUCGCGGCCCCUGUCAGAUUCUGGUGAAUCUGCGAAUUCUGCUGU

Variants of: B1
Test: self-cleavage, relative activity (ratio to wild type); higher = more cleavage; co-transcriptional
Each entry gets label 0 if its self-cleavage stays under 0.3, and label 1 if its self-cleavage is 0.3 or above.

The examples below pair each entry with its known result.
## Input Identify whether the reported self-cleavage of the following variant is 0.3 or greater: UGGGGCCACAGCAGAAGCGUUCACGUCGCGGCCCCUGUCAGAGUCUGGUGAAUCUGCGAAUUCUGCUGU
## Output label 0

## Input Identify whether the reported self-cleavage of the following variant is 0.3 or greater: GGGGGCCACAGCAGAAGCGUUCACGUCGCGGCCCCUGUCAGAUUCUGGAGAAUCUGCGAAGUCUGCUGU
## Output label 1

## Input Identify whether the reported self-cleavage of the following variant is 0.3 or greater: GGGGGCCACAGCAGAAGAGUUCACGUCGCGGCCCCUGUCAGAUUCUAGUGAAUCUGCGAAUUCUGCUGU
## Output label 0

## Input Identify whether the reported self-cleavage of the following variant is 0.3 or greater: GGGGGCCACAGCAGAAGCGUUCACGUCGCGGCCCCUAUCAGAUUCGGGUGAAUCUGCGAAUUCUGCUGU
## Output label 0

## Input Identify whether the reported self-cleavage of the following variant is 0.3 or greater: GGGGGCCACAGCAGAAGCGUUCACUUCGGGGCCCCUGUCAGAUUCUGGUGAAUCUGCGAAUUCUGCUGU
## Output label 0

Please examine the following record next.
## Input Identify whether the reported self-cleavage of the following variant is 0.3 or greater: GGGGGCCACAGCAGAAGCGUUCACGUCGCGGCCCCUGUCAGAUUAUGGUGAAUCUGCGAAUUCUUCUGU
## Output label 1
